TEST_TARGET: COUP transcription factor 2 (Homo sapiens)
ASSAY_OVERVIEW: NR2F2 transcriptional activity inhibitors, primary screen, cell-based, luciferase reporter, HEK293T, luminescence (AID 686940);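 note: cells cotransfected with COUP-TFII expression vector driving the NGFI-A reporter; 0% = median of COUP-TF2 test wells and 100% = reporter-only cells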
STATED_CONDITIONS: HEK293T NGFI-A luciferase reporter, at 8.6 µM, stronger effect = higher value
About 2,600 (0.7%) of roughly 370,000 compounds were called active. This is one part of a sample in which actives are shown more often than they occur.
MEASURE: inhibition (%)

>>> measurement("CCC(C)(O)C(=O)OC1C(=O)OC2CC3C(C)=CC(=O)C(O)C3(C)C3C4(O)OCC23C1C(C)C4O (stereo not given)")
89.2
>>> measurement("CO[C@H]([C@H](C)/C=C/N(C)C=O)[C@@H](C)C(=O)CC[C@H](C)[C@H](O)[C@H](C)[C@H]1OC(=O)/C=C/C(C)=C/[C@H](O)[C@H](OC)C[C@@H]2C=CC[C@@H](C[C@H](OC)[C@@]3(CO3)[C@@H](OC)C[C@@H](OC)[C@@H]1C)O2")
-21.1
>>> measurement("COP(=O)(Sc1ccccc1)C(Cc1ccccc1)NC(=O)OCc1ccccc1 (stereo not given)")
-13.2
>>> measurement("Cc1ccc(P(=S)(c2ccc(C)o2)N2CCOCC2)o1")
-6.39
>>> measurement("COC(=O)C1=C(c2ccc(-c3ccccc3)c(F)c2)C[C@@H]2CC[C@H]1N2C(=O)NCc1ccc(F)cc1")
9.38
>>> measurement("O=C(NCC1=C(c2ccc3ccccc3c2)C[C@@H]2CC[C@H]1N2Cc1ccco1)c1cccs1")
-9.66
>>> measurement("CCCCCCCCCCCCn1ccc(=N)cc1")
81.1
>>> measurement("CCOc1ccc(-c2cc(C)[n+](CCN(CC)CC)c(-c3ccc(OCC)cc3)c2)cc1")
65.8
>>> measurement("O=C(C1CC(=O)N(C2CCCC2)C1)N1CCC2(CC1)OCCO2 (stereo not given)")
-6.43
>>> measurement("NCCc1ccc(S(=O)(=O)F)cc1")
18.9

* * *

TEST_TARGET: COUP transcription factor 2 (Homo sapiens) (UniProt P24468)
Sequence (P24468 whole entry, looked up): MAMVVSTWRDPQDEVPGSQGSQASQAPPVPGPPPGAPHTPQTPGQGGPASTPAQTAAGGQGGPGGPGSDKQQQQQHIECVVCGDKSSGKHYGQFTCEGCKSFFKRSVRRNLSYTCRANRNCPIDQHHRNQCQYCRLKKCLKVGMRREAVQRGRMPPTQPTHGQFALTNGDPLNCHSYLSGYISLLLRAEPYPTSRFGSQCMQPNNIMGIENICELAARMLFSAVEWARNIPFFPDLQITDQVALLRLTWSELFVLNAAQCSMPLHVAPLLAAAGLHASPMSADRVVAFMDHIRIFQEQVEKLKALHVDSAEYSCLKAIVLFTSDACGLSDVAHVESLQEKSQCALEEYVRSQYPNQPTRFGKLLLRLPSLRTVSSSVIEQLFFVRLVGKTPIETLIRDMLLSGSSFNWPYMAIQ
ASSAY_OVERVIEW: NR2F2 transcriptional activity inhibitors, primary screen, cell-based, luciferase reporter, HEK293T, luminescence (AID 686940);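 note: cells cotransfected with COUP-TFII expression vector driving the NGFI-A reporter; 0% = median of COUP-TF2 test wells and 100% = reporter-only cells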
STATED_CONDITIONS: HEK293T NGFI-A luciferase reporter, at 8.6 µM
Out of some 370,000 compounds screened, about 2,600 (0.7%) were called active.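 How the source made its calls: active means inhibition above a per-plate cutoff, mean inhibition of test wells between control levels plus 3 SD (cut at about 38% in these data); inactive means the rest.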 The entries come from a sample that favours actives as a whole.
Possible outcomes: yes for active, no for inactive

>>> label_value("CS(=O)(=O)N1CCC2CCNC2C1 (stereo unspecified)")
"no"
>>> label_value("COc1cc(OC)cc(C(=O)NCCN2CCC3(CC2)C(=O)NCN3c2ccccc2)c1")
"no"
>>> label_value("CC(=C1C(=O)c2ccccc2C1=O)N1CCN(CCN=Cc2c(O)n(C)c(=O)n(C)c2=O)CC1")
"no"
>>> label_value("Clc1ccc([C@@H]2CC3CCC2N3)cn1 (stereo partly specified)")
"no"
>>> label_value("CC(=NC1CCN(Cc2ccccc2)CC1)c1c(O)n(C)c(=O)n(C)c1=O")
"no"
>>> label_value("O=c1c2ccccc2nc(CBr)n1-c1ccc(Cl)cc1")
"no"
>>> label_value("O=S(=O)(c1ccccc1)N1CCC2CCNC2C1 (stereo unspecified)")
"no"
>>> label_value("COc1ccc2c(c1)[C@@]13CCCCC1[C@@H](C2)NCC3 (stereo partly specified)")
"no"
>>> label_value("COC1C(O)C(C)OC(OC2CCC3(C=O)C(CCC4C3CCC3(C)C(C5=CC(=O)OC5)CCC43O)C2)C1O (stereo unspecified)")
"yes"
>>> label_value("CCN(CC)C(=O)[C@@H]1C=C2c3cccc4[nH]c(Br)c(c34)C[C@H]2N(C)C1")
"no"
>>> label_value("CCC/C(=N\\O)c1c[nH]c2ccccc12")
"no"
